tested on: 361931-004-R-J1-PDC multicell spheroid viability; test: Anticancer human tumor 361931-004-R-J1-PDC patient-derived colon adenocarcinoma cell line growth inhibition [PI3K]; settings: second compound 0.00316 µM; first compound 10 µM; stronger effect = lower value
value.type: viability, T/C (%)

molecule	subject.of.test	value.type	experimental.value
CC(C)NCC(C(=O)N1CCN(c2ncnc3c2C(C)CC3O)CC1)c1ccc(Cl)cc1 (stereo not given) + CC(Nc1ccc2c(c1)OCCn1cc(N3C(=O)OCC3C(F)F)nc1-2)C(N)=O	361931-004-R-J1-PDC multicell spheroid viability	viability, T/C	18.9
C[C@@H](NC(=O)c1ncnc(N)c1Cl)c1ncc(C(=O)Nc2cc(C(F)(F)F)c(Cl)cn2)s1 + CC(Nc1ccc2c(c1)OCCn1cc(N3C(=O)OCC3C(F)F)nc1-2)C(N)=O	361931-004-R-J1-PDC multicell spheroid viability	viability, T/C	84.6
CC(Cn1ccc(-c2ccc(C#N)c(Cl)c2)n1)NC(=O)c1cc(C(C)O)[nH]n1 (stereo not given) + COc1c(OCCCN2CCOCC2)ccc2c3n(c(=NC(=O)c4cnc(N)nc4)nc12)CCN3	361931-004-R-J1-PDC multicell spheroid viability	viability, T/C	98
C#Cc1c(F)ccc2cc(O)cc(-c3ncc4c(N5CC6CCC(C5)N6)nc(OCC56CCCN5CC(F)C6)nc4c3F)c12 (stereo not given) + CC(Nc1ccc2c(c1)OCCn1cc(N3C(=O)OCC3C(F)F)nc1-2)C(N)=O	361931-004-R-J1-PDC multicell spheroid viability	viability, T/C	62.3
CC1(C)CCC(Nc2ncc(C(F)(F)F)c(-c3c[nH]c4c(P(C)(C)=O)c(C#N)ccc34)n2)CN1 (stereo not given) + COc1c(OCCCN2CCOCC2)ccc2c3n(c(=NC(=O)c4cnc(N)nc4)nc12)CCN3	361931-004-R-J1-PDC multicell spheroid viability	viability, T/C	12.9

---

Reported viability, T/C by item:
test system: 361931-004-R-J1-PDC multicell spheroid viability; experiment: Anticancer human tumor 361931-004-R-J1-PDC cell line growth inhibition [PI3K]; settings: second compound 1 µM; first compound 0.1 µM; stronger effect = lower value;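 also: spheroids exposed to agents for seven days before readout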

compound	subject.of.test	viability, T/C / %
CC(Cn1ccc(-c2ccc(C#N)c(Cl)c2)n1)NC(=O)c1cc(C(C)O)[nH]n1 (stereo not drawn) + CC(Nc1ccc2c(c1)OCCn1cc(N3C(=O)OCC3C(F)F)nc1-2)C(N)=O	361931-004-R-J1-PDC multicell spheroid viability	75.9
CC(C)n1nc(-c2ccc3oc(N)nc3c2)c2c(N)ncnc21 + CC(Nc1ccc2c(c1)OCCn1cc(N3C(=O)OCC3C(F)F)nc1-2)C(N)=O	361931-004-R-J1-PDC multicell spheroid viability	32.6
CCCS(=O)(=O)Nc1ccc(F)c(C(=O)c2c[nH]c3ncc(-c4ccc(Cl)cc4)cc23)c1F + CC(Nc1ccc2c(c1)OCCn1cc(N3C(=O)OCC3C(F)F)nc1-2)C(N)=O	361931-004-R-J1-PDC multicell spheroid viability	65.7

---

test system: 361931-004-R-J1-PDC multicell spheroid viability; assay: Anticancer human tumor 361931-004-R-J1-PDC cell line growth inhibition [PI3K]; conditions: curve of first compound; second compound 0.0316 µM;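 also: spheroids exposed to agents for seven days before readout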
pIC50: −log10 of the molar value.
Reported pIC50 by item:

compound	pIC50
C[C@@H](NC(=O)c1ncnc(N)c1Cl)c1ncc(C(=O)Nc2cc(C(F)(F)F)c(Cl)cn2)s1 + Cc1nc(NC(=O)N2CCCC2C(N)=O)sc1-c1ccnc(C(C)(C)C(F)(F)F)c1	< 5.00
CCN1CCN(Cc2ccc(Nc3ncc(F)c(-c4cc(F)c5nc(C)n(C(C)C)c5c4)n3)nc2)CC1 + Cc1nc(NC(=O)N2CCCC2C(N)=O)sc1-c1ccnc(C(C)(C)C(F)(F)F)c1	< 6.00
CC1(C)CCC(Nc2ncc(C(F)(F)F)c(-c3c[nH]c4c(P(C)(C)=O)c(C#N)ccc34)n2)CN1 (stereo not given) + CC(Nc1ncnc2nc[nH]c12)c1cc2cccc(Cl)c2c(=O)n1-c1ccccc1	5.20
Cn1ncnc1[C@H]1c2n[nH]c(=O)c3cc(F)cc(c23)N[C@@H]1c1ccc(F)cc1 + CC(Nc1ncnc2nc[nH]c12)c1cc2cccc(Cl)c2c(=O)n1-c1ccccc1	< 7.00
Cn1cnc2c(F)c(Nc3ccc(Br)cc3Cl)c(C(=O)NOCCO)cc21 + Cc1nc(NC(=O)N2CCCC2C(N)=O)sc1-c1ccnc(C(C)(C)C(F)(F)F)c1	< 5.52

---

system: 361931-004-R-J1-PDC multicell spheroid viability; test: Anticancer human tumor 361931-004-R-J1-PDC cell line growth inhibition [PI3K]; details: second compound 1 µM; first compound 10 µM; stronger effect = lower value;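 also: spheroids exposed to agents for seven days before readout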

molecule	viability, T/C (%)
CC1(C)CCC(CN2CCN(c3ccc(C(=O)NS(=O)(=O)c4ccc(NCC5CCOCC5)c([N+](=O)[O-])c4)c(Oc4cnc5[nH]ccc5c4)c3)CC2)=C(c2ccc(Cl)cc2)C1 + CC(Nc1ncnc2nc[nH]c12)c1cc2cccc(Cl)c2c(=O)n1-c1ccccc1	3.62
CC1(C)CCC(CN2CCN(c3ccc(C(=O)NS(=O)(=O)c4ccc(NCC5CCOCC5)c([N+](=O)[O-])c4)c(Oc4cnc5[nH]ccc5c4)c3)CC2)=C(c2ccc(Cl)cc2)C1 + Cc1nc(NC(=O)N2CCCC2C(N)=O)sc1-c1ccnc(C(C)(C)C(F)(F)F)c1	0.97
Cn1nccc1Nc1nccc(-c2ccn(C(CO)c3ccc(Cl)c(F)c3)c(=O)c2)n1 (stereo not given) + COc1c(OCCCN2CCOCC2)ccc2c3n(c(=NC(=O)c4cnc(N)nc4)nc12)CCN3	1.61
C[C@@H](NC(=O)c1ncnc(N)c1Cl)c1ncc(C(=O)Nc2cc(C(F)(F)F)c(Cl)cn2)s1 + Cc1nc(NC(=O)N2CCCC2C(N)=O)sc1-c1ccnc(C(C)(C)C(F)(F)F)c1	60.9
CC1(C)CCC(Nc2ncc(C(F)(F)F)c(-c3c[nH]c4c(P(C)(C)=O)c(C#N)ccc34)n2)CN1 (stereo not given) + CC(Nc1ccc2c(c1)OCCn1cc(N3C(=O)OCC3C(F)F)nc1-2)C(N)=O	3.28

---

system: 361931-004-R-J1-PDC multicell spheroid viability; assay: Anticancer human tumor 361931-004-R-J1-PDC cell line growth inhibition [PI3K]; settings: second compound 0.0316 µM; first compound 0.001 µM; stronger effect = lower value;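 also: spheroids exposed to agents for seven days before readout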
Reported viability, T/C by item:
value.type: viability, T/C (%)

compound	value.type	experimental.value
CC(=O)c1c(C)c2cnc(Nc3ccc(N4CCNCC4)cn3)nc2n(C2CCCC2)c1=O + CC(Nc1ccc2c(c1)OCCn1cc(N3C(=O)OCC3C(F)F)nc1-2)C(N)=O	viability, T/C	102
CC(C)n1nc(-c2ccc3oc(N)nc3c2)c2c(N)ncnc21 + CC(Nc1ccc2c(c1)OCCn1cc(N3C(=O)OCC3C(F)F)nc1-2)C(N)=O	viability, T/C	98.7
CC(C)n1nc(-c2ccc3oc(N)nc3c2)c2c(N)ncnc21 + COc1c(OCCCN2CCOCC2)ccc2c3n(c(=NC(=O)c4cnc(N)nc4)nc12)CCN3	viability, T/C	98.7
CC(C)n1nc(-c2ccc3oc(N)nc3c2)c2c(N)ncnc21 + CC(Nc1ncnc2nc[nH]c12)c1cc2cccc(Cl)c2c(=O)n1-c1ccccc1	viability, T/C	107
CC(C)n1nc(-c2ccc3oc(N)nc3c2)c2c(N)ncnc21 + Cc1nc(NC(=O)N2CCCC2C(N)=O)sc1-c1ccnc(C(C)(C)C(F)(F)F)c1	viability, T/C	101
Cn1ncnc1[C@H]1c2n[nH]c(=O)c3cc(F)cc(c23)N[C@@H]1c1ccc(F)cc1 + Cc1nc(NC(=O)N2CCCC2C(N)=O)sc1-c1ccnc(C(C)(C)C(F)(F)F)c1	viability, T/C	93.1

---

test system: 361931-004-R-J1-PDC multicell spheroid viability; assay: Anticancer human tumor 361931-004-R-J1-PDC cell line growth inhibition [PI3K]; conditions: second compound 0.1 µM; first compound 10 µM; active = viability on the fitted dose curve at most 10% of control; inactive = the rest;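 also: spheroids exposed to agents for seven days before readout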
Classes used: class 1 for active, class 0 for inactive

molecule	classification
CC1(C)CCC(CN2CCN(c3ccc(C(=O)NS(=O)(=O)c4ccc(NCC5CCOCC5)c([N+](=O)[O-])c4)c(Oc4cnc5[nH]ccc5c4)c3)CC2)=C(c2ccc(Cl)cc2)C1 + CC(Nc1ncnc2nc[nH]c12)c1cc2cccc(Cl)c2c(=O)n1-c1ccccc1	class 1
C=CC(=O)N1CCN(c2nc(=O)n(-c3c(C)ccnc3C(C)C)c3nc(-c4c(O)cccc4F)c(F)cc23)C(C)C1 (stereo not given) + Cc1nc(NC(=O)N2CCCC2C(N)=O)sc1-c1ccnc(C(C)(C)C(F)(F)F)c1	class 0
CNC(=O)c1ccc(N2C(=S)N(c3ccc(C#N)c(C(F)(F)F)c3)C(=O)C2(C)C)cc1F + COc1c(OCCCN2CCOCC2)ccc2c3n(c(=NC(=O)c4cnc(N)nc4)nc12)CCN3	class 0
C#Cc1c(F)ccc2cc(O)cc(-c3ncc4c(N5CC6CCC(C5)N6)nc(OCC56CCCN5CC(F)C6)nc4c3F)c12 (stereo not given) + COc1c(OCCCN2CCOCC2)ccc2c3n(c(=NC(=O)c4cnc(N)nc4)nc12)CCN3	class 0
Cn1nccc1Nc1nccc(-c2ccn(C(CO)c3ccc(Cl)c(F)c3)c(=O)c2)n1 (stereo not given) + COc1c(OCCCN2CCOCC2)ccc2c3n(c(=NC(=O)c4cnc(N)nc4)nc12)CCN3	class 1
